Measured SEAP-His: absorbance at 450 nm, percentage with respect to hEphA4-SEAP-His as 100% by item
- studySystem: SEAP-His (Homo sapiens, UniProt P05187)
- Sequence (P05187 23-511 limits assumed): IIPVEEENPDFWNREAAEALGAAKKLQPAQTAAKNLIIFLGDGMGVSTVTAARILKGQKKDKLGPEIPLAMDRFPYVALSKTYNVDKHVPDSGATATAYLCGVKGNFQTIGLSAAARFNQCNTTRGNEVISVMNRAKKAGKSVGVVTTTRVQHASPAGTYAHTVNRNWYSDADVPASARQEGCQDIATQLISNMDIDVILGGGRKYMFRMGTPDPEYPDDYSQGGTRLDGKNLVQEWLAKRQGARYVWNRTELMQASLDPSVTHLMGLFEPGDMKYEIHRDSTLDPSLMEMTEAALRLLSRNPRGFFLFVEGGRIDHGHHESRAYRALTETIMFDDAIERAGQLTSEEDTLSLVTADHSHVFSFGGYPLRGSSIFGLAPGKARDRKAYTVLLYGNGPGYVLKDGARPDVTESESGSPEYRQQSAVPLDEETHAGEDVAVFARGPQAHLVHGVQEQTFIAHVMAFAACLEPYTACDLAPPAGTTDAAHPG
- procedureText: Selectivity ELISA of humanized antibodies for human Eph receptor
- Format: binding
- testSettings: coated protein 1 nM
- Text: According to the method described in Example 7, a DNA sequence encoding the signal sequence and the extracellular region of each human Eph receptor (EphA1, EphA2, EphA3, EphA4, EphA5, EphA6, EphA7, EphA8, EphA10, EphB1, EphB2, EphB3, EphB4, and EphB6) was amplified by RT-PCR using tissue-derived total RNA and cloned into a pENTR1A vector (Invitrogen/Life Technologies) having a DNA sequence encoding SEAP protein and histidine tag. […]
Field: value (include unit after the number)

{"molecule": "142 (antibody, V domains shown, synthetic humanized antibody heavy chain variable region sequence; synthetic humanized antibody light chain variable region sequence) VH: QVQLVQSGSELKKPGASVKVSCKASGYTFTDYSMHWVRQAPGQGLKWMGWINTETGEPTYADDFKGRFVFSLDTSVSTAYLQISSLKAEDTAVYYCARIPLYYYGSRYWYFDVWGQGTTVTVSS VL: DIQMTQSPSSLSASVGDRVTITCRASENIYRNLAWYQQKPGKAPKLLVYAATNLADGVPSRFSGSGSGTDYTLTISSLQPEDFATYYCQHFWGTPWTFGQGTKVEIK", "result": "5.8%"}

State its SEAP-His: absorbance at 450 nm, percentage with respect to hEphA4-SEAP-His as 100%: 160 (antibody, V domains shown, synthetic humanized antibody heavy chain variable region sequence; synthetic humanized antibody light chain variable region sequence) VH: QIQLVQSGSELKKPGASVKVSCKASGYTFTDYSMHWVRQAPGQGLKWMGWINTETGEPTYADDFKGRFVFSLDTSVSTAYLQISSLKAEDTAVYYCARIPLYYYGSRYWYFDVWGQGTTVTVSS VL: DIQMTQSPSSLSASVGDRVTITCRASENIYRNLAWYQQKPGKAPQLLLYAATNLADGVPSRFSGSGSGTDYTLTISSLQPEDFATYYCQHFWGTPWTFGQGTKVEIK
6.3%
